Molecular target: full-length beta-Catenin (Uniprot ID P35222) (Homo sapiens, UniProt P35222)
Construct: 10 nM full-length beta-Catenin (Uniprot ID P35222)
Sequence (P35222 1-781): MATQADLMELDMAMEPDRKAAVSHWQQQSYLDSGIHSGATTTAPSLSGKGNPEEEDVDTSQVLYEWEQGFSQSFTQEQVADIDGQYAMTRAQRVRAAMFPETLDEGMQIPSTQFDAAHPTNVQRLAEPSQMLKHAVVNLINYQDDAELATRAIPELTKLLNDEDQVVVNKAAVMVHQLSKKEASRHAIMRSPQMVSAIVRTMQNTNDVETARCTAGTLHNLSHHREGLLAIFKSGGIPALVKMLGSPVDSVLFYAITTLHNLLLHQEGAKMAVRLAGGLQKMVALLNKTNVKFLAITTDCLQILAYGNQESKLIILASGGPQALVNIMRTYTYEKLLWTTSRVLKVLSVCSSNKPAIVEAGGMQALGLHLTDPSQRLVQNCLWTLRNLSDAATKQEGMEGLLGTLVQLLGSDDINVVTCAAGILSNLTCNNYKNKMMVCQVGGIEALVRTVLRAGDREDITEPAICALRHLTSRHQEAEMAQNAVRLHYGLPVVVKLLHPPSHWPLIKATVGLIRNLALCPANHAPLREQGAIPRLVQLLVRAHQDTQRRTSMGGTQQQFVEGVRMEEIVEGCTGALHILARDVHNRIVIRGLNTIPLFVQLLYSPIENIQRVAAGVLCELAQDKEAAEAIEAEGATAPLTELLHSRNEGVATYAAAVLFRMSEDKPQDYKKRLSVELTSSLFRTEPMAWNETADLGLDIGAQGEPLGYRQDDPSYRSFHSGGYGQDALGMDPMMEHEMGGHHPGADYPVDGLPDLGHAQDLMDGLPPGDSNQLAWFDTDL
Test: Fluorescence polarization IC50 (beta-catenin / 5FAM-TCF4 10-53 competition)
Type: binding
Details: fluorescence polarization; read-out: beta-Catenin FP IC50
pIC50: −log10 of the molar value.
In this section, each of the compounds is paired with its reported pIC50.
Measured parameter: pIC50

INSERT INTO measurements (compound, readout_number) VALUES
  ('CC(=O)N1CCC[C@]12CC=CCCCC1(CCCC=CCCCOC(=O)N3CC[C@@](C(=O)N[C@@H](Cc4ccccc4C(F)(F)F)C(=O)N[C@@H](Cc4csc5ccccc45)C(=O)N[C@@H](CCC(N)=O)C(N)=O)(C3)NC(=O)[C@H](CC(N)=O)NC(=O)[C@H](Cc3ccccc3)NC(=O)[C@H](C)NC(=O)[C@H](C)NC(=O)[C@H](CC(=O)O)NC(=O)[C@H](CC(=O)O)NC1=O)NC(=O)[C@H](CC(C)(C)C)NC(=O)[C@H](CC(=O)O)NC2=O (stereo partly shown)', 8.05),
  ('CC(=O)N1CCC[C@]12CC=CCCCC1(CCCC=CCCCOC(=O)N3CC[C@@](C(=O)N[C@@H](Cc4ccccc4C(N)=O)C(=O)N[C@@H](Cc4csc5ccccc45)C(=O)N[C@@H](CCC(N)=O)C(N)=O)(C3)NC(=O)[C@H](CC(C)C)NC(=O)[C@H](Cc3ccccc3)NC(=O)[C@H](C)NC(=O)[C@H](C)NC(=O)[C@H](CC(=O)O)NC(=O)[C@H](CC(=O)O)NC1=O)NC(=O)[C@H](CC(C)(C)C)NC(=O)[C@H](CC(=O)O)NC2=O (stereo partly shown)', 7.89),
  ('CC(=O)N1CCC[C@]12CC=CCCCC1(CCCC=CCCCOC(=O)N3CC[C@@](C(=O)N[C@@H](Cc4ccsc4)C(=O)N[C@@H](Cc4csc5ccccc45)C(=O)N[C@@H](CCC(=O)N4CCN(CCCN(C)C)CC4)C(N)=O)(C3)NC(=O)[C@H](CC(C)C)NC(=O)[C@H](Cc3ccccc3)NC(=O)[C@H](C)NC(=O)[C@H](C)NC(=O)[C@H](CN(CC(=O)O)CC(F)(F)F)NC(=O)[C@H](CC(=O)O)NC1=O)NC(=O)[C@H](CC(C)(C)C)NC(=O)[C@H](CC(=O)O)NC2=O (stereo partly shown) [I-1799]', 8.10),
  ('CC(=O)N1CCC[C@]12CC=CCCCC1(CCCC=CCCCOC(=O)N3CC[C@@](C(=O)N[C@@H](Cc4ccsc4)C(=O)N[C@@H](Cc4csc5ccccc45)C(=O)N[C@@H](CCC(N)=O)C(N)=O)(C3)NC(=O)[C@H](CC(C)C)NC(=O)[C@H](Cc3ccccc3)NC(=O)[C@H](C)NC(=O)[C@H](C)NC(=O)[C@H](CN(CC(=O)O)Cc3c(F)c(F)c(F)c(F)c3F)NC(=O)[C@H](CC(=O)O)NC1=O)NC(=O)[C@H](CC(C)(C)C)NC(=O)[C@H](CC(=O)O)NC2=O (stereo partly shown)', 8.00);
